# TARGET_DESC: cloned human κ receptors (Homo sapiens)
# Sequence (P41145 whole entry): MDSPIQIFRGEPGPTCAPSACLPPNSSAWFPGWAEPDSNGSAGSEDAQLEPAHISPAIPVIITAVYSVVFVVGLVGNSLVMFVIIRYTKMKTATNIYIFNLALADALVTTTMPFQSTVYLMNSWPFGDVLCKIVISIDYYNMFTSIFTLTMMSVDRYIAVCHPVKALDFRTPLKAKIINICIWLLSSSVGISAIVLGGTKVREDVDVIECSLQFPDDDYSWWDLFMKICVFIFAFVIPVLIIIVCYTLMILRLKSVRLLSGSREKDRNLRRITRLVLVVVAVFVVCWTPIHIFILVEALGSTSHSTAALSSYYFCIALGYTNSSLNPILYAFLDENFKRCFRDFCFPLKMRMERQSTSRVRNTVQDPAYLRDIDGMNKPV
Each entry below lists one item and its recorded pIC50 value.
Please note pIC50 is a logarithmic value: minus log10 of concentration in mol/L. Answer with that number alone.

Sample answers from the record:
SMILES_RECORD: CCN(CC)C(=O)c1ccc([C@H](c2cccc(N)c2)N2CCN(Cc3ccc(F)cc3)CC2)cc1
pIC50: 5.26
//
SMILES_RECORD: CCN(CC)C(=O)c1ccc([C@H](c2cccc(N)c2)N2CCN(Cc3cccc(F)c3)CC2)cc1
pIC50: 5.24

Now for the molecule whose pIC50 we want.
Data request: Report pIC50 from cloned human κ receptors (Homo sapiens) testing of CCN(CC)C(=O)c1ccc([C@H](c2cccc(N)c2)N2CCN(Cc3ccccc3F)CC2)cc1
Data returned: 5.14

====

Each entry below lists one item and its recorded IC50 value.
# TARGET_DESC: cloned human μ receptors (Homo sapiens, UniProt P35372)
# Construct: expressed in transfected cells; host or cells: human 293S (HEK 293S) cells
# Sequence (P35372 whole entry): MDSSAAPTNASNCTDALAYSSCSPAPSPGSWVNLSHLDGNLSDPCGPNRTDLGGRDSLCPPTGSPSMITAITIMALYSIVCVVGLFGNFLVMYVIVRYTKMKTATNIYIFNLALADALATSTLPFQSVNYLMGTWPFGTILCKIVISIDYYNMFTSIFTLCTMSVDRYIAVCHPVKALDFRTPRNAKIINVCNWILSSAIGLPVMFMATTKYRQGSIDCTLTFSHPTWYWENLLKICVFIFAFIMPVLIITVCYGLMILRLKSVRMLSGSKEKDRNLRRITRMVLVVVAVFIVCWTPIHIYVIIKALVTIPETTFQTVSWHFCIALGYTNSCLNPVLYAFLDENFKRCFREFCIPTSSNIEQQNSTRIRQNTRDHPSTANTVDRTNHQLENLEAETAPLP
# METHOD_NOTES: Binding assay, displacement of 125I-FK33824 (IC50hm)
Kindly provide the numeric value in nM only, without the unit symbol.

Data request: In one line, give reported IC50 of the entry CCN(CC)C(=O)c1ccc([C@@H](c2cccc(N)c2)N2CCN(Cc3ccc(F)cc3)CC2)cc1 .
Data returned: 3320

Data request: In one line, give reported IC50 of the entry CCN(CC)C(=O)c1ccc([C@H](c2cccc(N)c2)N2CCN(Cc3ccccc3F)CC2)cc1 .
Data returned: 2260

Data request: In one line, give reported IC50 of the entry CCN(CC)C(=O)c1ccc([C@H](c2cccc(N)c2)N2CCN(Cc3ccc(F)cc3)CC2)cc1 .
Data returned: 715

Data request: In one line, give reported IC50 of the entry CCN(CC)C(=O)c1ccc([C@H](c2cccc(N)c2)N2CCN(Cc3cccc(F)c3)CC2)cc1 .
Data returned: 2740

====

# TARGET_DESC: cloned human δ receptors (Homo sapiens, UniProt P41143)
# Construct: expressed in transfected cells
# Sequence (P41143 whole entry): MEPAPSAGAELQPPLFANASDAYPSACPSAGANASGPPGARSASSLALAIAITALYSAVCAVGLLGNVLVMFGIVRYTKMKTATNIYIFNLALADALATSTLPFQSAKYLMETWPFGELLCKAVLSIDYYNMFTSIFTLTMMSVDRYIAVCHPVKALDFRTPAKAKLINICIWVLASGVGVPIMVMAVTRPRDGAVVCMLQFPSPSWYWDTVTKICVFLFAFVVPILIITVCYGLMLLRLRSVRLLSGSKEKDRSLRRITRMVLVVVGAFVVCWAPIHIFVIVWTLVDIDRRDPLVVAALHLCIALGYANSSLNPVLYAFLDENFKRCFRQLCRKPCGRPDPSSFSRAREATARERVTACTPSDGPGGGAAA
# METHOD_NOTES: Binding assay, displacement of 125I-Deltorphin II (IC50hd)
# MEASUREMENT_SETUP: human δ receptor, 293S cell membranes; read-out: IC50hd
ASSAY_READOUT: pIC50
Please note pIC50 is a logarithmic value: minus log10 of concentration in mol/L. Answer with that number alone.

SMILES_RECORD: CCN(CC)C(=O)c1ccc([C@H](c2cccc(N)c2)N2CCN(Cc3ccc(F)cc3)CC2)cc1
OBSERVED_MEASUREMENT: 9.23

Now for the molecule whose pIC50 we want.
Data request: Report pIC50 from cloned human δ receptors (Homo sapiens, UniProt P41143) testing of CCN(CC)C(=O)c1ccc([C@@H](c2cccc(N)c2)N2CCN(Cc3ccc(F)cc3)CC2)cc1
Data returned: 8.06

====

# TARGET_DESC: human δ receptors (Homo sapiens, UniProt P41143)
# Construct: expressed in transfected cells
# METHOD_NOTES: Human δ receptor functional assay, GTP[γ]35S binding
# Type: biochemical
# MEASUREMENT_SETUP: EC50h (low), human δ receptors expressed at lower levels
Each entry below lists one item and its recorded pEC50 value.
Please note pEC50 is a logarithmic value: minus log10 of concentration in mol/L. Answer with that number alone.

SMILES_RECORD: CCN(CC)C(=O)c1ccc([C@H](c2cccc(N)c2)N2CCN(Cc3ccccc3F)CC2)cc1
TARGET_DESC: human δ receptors (Homo sapiens, UniProt P41143)
pEC50: 7.32

Now for the molecule whose pEC50 we want.
Data request: In one line, give reported pEC50 of the entry CCN(CC)C(=O)c1ccc([C@H](c2cccc(N)c2)N2CCN(Cc3cccc(F)c3)CC2)cc1 .
Data returned: 7.11

====

# TARGET_DESC: human δ receptors (Homo sapiens)
# Construct: expressed in transfected cells
# METHOD_NOTES: Human δ receptor functional assay, GTP[γ]35S binding
# Type: biochemical
# MEASUREMENT_SETUP: human δ receptors expressed at higher levels; read-out: EC50h (high)
# Method: The agonist activity of the compounds is measured by determining the degree to which the compounds receptor complex activates the binding of GTP to G-proteins to which the receptors are coupled. […] The EC50 and Emax values of compounds are determined from dose-response curves. […] For human δ receptor functional assays, EC50 (low) is measured when the human δ receptors used in the assay were expressed at lower levels in comparison with those used in determining EC50 (high). […]
Each entry below lists one item and its recorded EC50 value.
Kindly provide the numeric value in nM only, without the unit symbol.

SMILES_RECORD: CCN(CC)C(=O)c1ccc([C@@H](c2cccc(N)c2)N2CCN(Cc3ccc(F)cc3)CC2)cc1
UNIT_SYMBOL: nM
EC50: 100

Now for the compound whose EC50 we want.
Data request: Report EC50 from human δ receptors (Homo sapiens) testing of CCN(CC)C(=O)c1ccc([C@H](c2cccc(N)c2)N2CCN(Cc3ccc(F)cc3)CC2)cc1
Data returned: 4.18
